- Test system: HEK-293T
- assay: Multiplex assay against HEK293T
- Type: toxicity, cell-based
- protocol-conditions: human, 12 h, 1 µM, compound concentration 1 uM, replicate 1
result-type: Population Pyknosed Nuclei (%)
// note: answer is a bare numeric in %

Known results for compounds:
1) CCOC(=O)Nc1cc(-c2ccc(C)c(NS(C)(=O)=O)c2)nn2c(C)nnc12; 17
2) Cl.O=C(O)c1cc(-c2ccc(C3CCNCC3)cc2)c2ccc(-c3ccc(C(F)(F)F)cc3)cc2c1; 61
3) CCCSc1nc(N[C@@H]2C[C@H]2c2ccc(F)c(F)c2)c2nnn([C@@H]3C[C@H](OCCO)[C@@H](O)[C@H]3O)c2n1; 45

Identify the reported Population Pyknosed Nuclei (%) for the following entry. CNC(=O)Nc1ccc2c(c1)[C@@]1(CC2)OC(=O)N(CC(=O)N(Cc2ccc(F)cc2)[C@@H](C)C(F)(F)F)C1=O
35

----------
- Tested on: Fibroblast
- assay: Multiplex assay against human fibroblast
- Type: toxicity, cell-based
- protocol-conditions: 24 h, 10 µM, compound concentration 10 uM, replicate 1
Reported Population Normal (%) values are given for each entry in this list.
// note: answer is a bare numeric in %

1. Cc1nc(N2CC[C@H](O)C2)ncc1-c1cc(C(F)(F)F)cc2[nH]ncc12; 84
2. CC1=C(C(=O)Nc2cc3cn[nH]c3cc2F)C(c2ccc(C(F)(F)F)cc2)CC(=O)N1 (stereo not given); 90
3. O=c1[nH]c2ccccc2n1C1CCN(Cc2ccc(-c3[nH]c4cc5ncnc5cc4nc3-c3ccccc3)cc2)CC1; 37
4. CC(C)OC(=O)N1CCC(Oc2ncnc3c2cnn3-c2ccc(S(C)(=O)=O)cc2F)CC1; 87

Next molecule, Population Normal (%) to be filled in.
Identify the reported Population Normal (%) for the following entry. Cl.O=C(O)c1cc(-c2ccc(C3CCNCC3)cc2)c2ccc(-c3ccc(C(F)(F)F)cc3)cc2c1
84

----------
- Test system: Fibroblast
- assay: Multiplex assay against human fibroblast
- Assay type: toxicity, cell-based
- protocol-conditions: 12 h, 1 µM, compound concentration 1 uM, replicate 2
result-type: Population Mitochondria Different-Phenotype (%)
// note: answer is a bare numeric in %

1. C=CC(=O)Nc1cccc(Oc2nc(Nc3ccc(N4CCN(C)CC4)cc3OC)ncc2Cl)c1; 26

Identify the reported Population Mitochondria Different-Phenotype (%) for the following entry. CCOC(=O)Nc1cc(-c2ccc(C)c(NS(C)(=O)=O)c2)nn2c(C)nnc12
16

Identify the reported Population Mitochondria Different-Phenotype (%) for the following entry. O=c1[nH]c2ccccc2n1C1CCN(Cc2ccc(-c3[nH]c4cc5ncnc5cc4nc3-c3ccccc3)cc2)CC1
0

Identify the reported Population Mitochondria Different-Phenotype (%) for the following entry. CC(C)CC(=O)Nc1[nH]nc2c1CN(C(=O)C1CCN(C)CC1)C2(C)C
44

Identify the reported Population Mitochondria Different-Phenotype (%) for the following entry. CCc1ccc(OCc2ccccc2C(=O)Nc2ccc3nc(C)cc(N)c3c2)cc1.Cl
92

Identify the reported Population Mitochondria Different-Phenotype (%) for the following entry. COC(=O)C1=C(C)NC(C)=C(C(=O)OCCCN2CCC(c3ccccc3)(c3ccccc3)CC2)[C@H]1c1cccc([N+](=O)[O-])c1
100

Identify the reported Population Mitochondria Different-Phenotype (%) for the following entry. Cc1ccc2c(c1)c1c(n2CCc2ccc(C)nc2)CCN(C)C1 [LATREPIRDINE]
27

Identify the reported Population Mitochondria Different-Phenotype (%) for the following entry. CC(C)(C)NC[C@H](O)COc1nsnc1N1CCOCC1
11

Identify the reported Population Mitochondria Different-Phenotype (%) for the following entry. Cc1c[nH]c2nccc(Oc3c(F)cc(Nc4cc(Cl)nc(N)n4)cc3F)c12
6

Identify the reported Population Mitochondria Different-Phenotype (%) for the following entry. COc1ccccc1CN[C@H]1C2CCN(CC2)[C@H]1C(c1ccccc1)c1ccccc1
7

Identify the reported Population Mitochondria Different-Phenotype (%) for the following entry. CN1CCN(Cc2ccc(Nc3ncc(Cl)c(Nc4ccccc4S(=O)(=O)N(C)C)n3)cc2)CC1
16

Identify the reported Population Mitochondria Different-Phenotype (%) for the following entry. CCC1=C[C@@H]2C[N@](C1)Cc1c([nH]c3ccccc13)[C@@](C(=O)OC)(c1cc3c(cc1OC)N(C)[C@H]1[C@@](O)(C(=O)OC)[C@H](OC(C)=O)[C@]4(CC)C=CCN5CC[C@]31[C@@H]54)C2.O=C(O)C(O)C(O)C(=O)O.O=C(O)C(O)C(O)C(=O)O [VINORELBINE TARTRATE]
0
